Test: Half life in rat at 10 mg/kg
Format: ADME, organism-based
Parameters: dose 10 mg/kg
Settings: in vivo
Endpoint name: half-life

# Smiles notation, Reported result
rows = [
    ("C[C@@](CCn1ccc(-c2ccc(-n3nccn3)cc2)cc1=O)(C(=O)NO)S(C)(=O)=O", "56.4 min"),
    ("C[C@@](CCc1ccc(-c2ccccc2)cc1)(C(=O)NO)S(C)(=O)=O", "192 min"),
    ("COc1ccc(-c2ccn(CC[C@](C)(C(=O)NO)S(C)(=O)=O)c(=O)c2)c(F)c1", "84 min"),
]

* * *

Test system: Citrobacter freundii
Assay: microbe, parasite or virus in culture
Description: Antimicrobial activity against Citrobacter freundii after 16 to 20 hrs by 2-fold microbroth dilution method
Endpoint name: MIC90 (mg/L)

# Smiles notation, Endpoint name, Unit info, Reported result
data = [
    ("COc1ccc(-c2ccn(CC[C@](C)(C(=O)NO)S(C)(=O)=O)c(=O)c2)cn1", "MIC90", "mg/L", 16),
    ("C[C@@](CCn1cnc(-c2ccccc2)cc1=O)(C(=O)NO)S(C)(=O)=O", "MIC90", "mg/L", 16),
    ("C[C@@](CCn1cc(F)c(-c2ccccc2)cc1=O)(C(=O)NO)S(C)(=O)=O", "MIC90", "mg/L", 8),
    ("C[C@@](CCn1ccc(-c2ccc(-n3nccn3)cc2)cc1=O)(C(=O)NO)S(C)(=O)=O", "MIC90", "mg/L", 0.125),
    ("C[C@@](CCn1ccc(-c2ccc3ccccc3c2)cc1=O)(C(=O)NO)S(C)(=O)=O", "MIC90", "mg/L", 0.125),
]

* * *

System: Citrobacter freundii
Experiment: microbe, parasite or virus in culture
Please use Yes for MIC90 under 0.5 µg/mL and No for everything else, ties included.

# Smiles notation, Group label
measured = [
    ("C[C@@](CCn1ccc(-c2ccc(Cl)c(F)c2F)cc1=O)(C(=O)NO)S(C)(=O)=O", "Yes"),
    ("C[C@@](CCc1ccc(-c2ccccc2)cc1)(C(=O)NO)S(C)(=O)=O", "No"),
    ("C[C@@](CCn1ccc(C#Cc2ccccc2)cc1=O)(C(=O)NO)S(C)(=O)=O", "Yes"),
    ("C[C@H]1[C@H](NC(=O)/C(=N\\OC(C)(C)C(=O)O)c2csc(N)n2)C(=O)N1S(=O)(=O)O", "No"),
    ("O=C(O)c1cn(C2CC2)c2cc(N3CCNCC3)c(F)cc2c1=O", "No"),
    ("C[C@@](CCn1ccc(-c2ccccc2)cc1=O)(C(=O)NO)S(C)(=O)=O", "No"),
]

* * *

Biological target: UDP-3-O-acyl-N-acetylglucosamine deacetylase (Pseudomonas aeruginosa (strain ATCC 15692 / PAO1 / 1C / PRS 101 / LMG12228))
Sequence (P47205 whole entry): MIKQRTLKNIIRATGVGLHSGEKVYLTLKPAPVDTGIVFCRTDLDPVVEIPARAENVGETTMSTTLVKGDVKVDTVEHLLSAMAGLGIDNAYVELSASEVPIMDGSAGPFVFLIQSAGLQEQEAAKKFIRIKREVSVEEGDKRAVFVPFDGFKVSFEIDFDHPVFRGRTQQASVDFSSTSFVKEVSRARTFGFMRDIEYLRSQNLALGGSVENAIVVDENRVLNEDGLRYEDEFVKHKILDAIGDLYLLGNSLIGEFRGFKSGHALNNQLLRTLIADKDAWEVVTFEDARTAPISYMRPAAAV
Assay: Inhibition of Pseudomonas aeruginosa LpxC expressed in Escherichia coli using UDP-3-O-N-acetylglucosamine substrate measured after 30 mins by mass spectrometry
pIC50: −log10 of the molar value.

# Smiles notation, pIC50
records = [
    ("C[C@@](CCn1ccc(C#Cc2ccccc2)cc1=O)(C(=O)NO)S(C)(=O)=O", 8.74),
    ("COc1cccc(-c2ccn(CC[C@](C)(C(=O)NO)S(C)(=O)=O)c(=O)c2)c1F", 8.74),
    ("C[C@@](CCn1ccc(-c2ccc(Cl)c(F)c2F)cc1=O)(C(=O)NO)S(C)(=O)=O", 9.28),
    ("COc1ccc(-c2ccn(CC[C@](C)(C(=O)NO)S(C)(=O)=O)c(=O)c2)cc1F", 8.70),
    ("C[C@@](CCn1ccc(-c2ccc(F)c(F)c2F)cc1=O)(C(=O)NO)S(C)(=O)=O", 8.82),
    ("C[C@@](CCn1ccc(-c2ccncc2)cc1=O)(C(=O)NO)S(C)(=O)=O", 7.41),
    ("C[C@@](CCn1ccc(-c2ccc(Cl)cc2F)cc1=O)(C(=O)NO)S(C)(=O)=O", 9.00),
    ("C[C@@](CCn1ccc(-c2ccccn2)cc1=O)(C(=O)NO)S(C)(=O)=O", 7.22),
    ("Cc1cc(-c2ccccc2)cc(=O)n1CC[C@](C)(C(=O)NO)S(C)(=O)=O", 7.66),
]
